FYI, the data here is from the supplement of paper PMC10307832.

tested on: NCI-H520; assay: relative viability (nuclei count vs DMSO), 5 days (fraction); higher = more cells survive; details: first compound 0.8 µM
The compounds listed here are annotated with their relative viability.
Simply state the number, no unit and no words.

Answered examples (3):
INSERT INTO measurements (compound, reported_value) VALUES
  ('CCCCCCCCCCCC1=C(O)C(=O)C=C(O)C1=O [Embelin] + Cc1nc(NC(=O)N2CCC[C@H]2C(N)=O)sc1-c1ccnc(C(C)(C)C(F)(F)F)c1 [Alpelisib] (partner 2 µM)', 1.06),
  ('CCCCCCCCCCCC1=C(O)C(=O)C=C(O)C1=O [Embelin] + CC1(C)CCC(c2ccc(Cl)cc2)=C(CN2CCN(c3ccc(C(=O)NS(=O)(=O)c4ccc(N[C@H](CCN5CCOCC5)CSc5ccccc5)c(S(=O)(=O)C(F)(F)F)c4)cc3)CC2)C1 [Navitoclax] (partner 0.5 µM)', 1.26),
  ('CCCCCCCCCCCC1=C(O)C(=O)C=C(O)C1=O [Embelin] + COc1cc2c(Oc3ccc(NC(=O)C4(C(=O)Nc5ccc(F)cc5)CC4)cc3F)ccnc2cc1OCCCN1CCOCC1 [Foretinib] (partner 0.25 µM)', 0.891);

Request: Which measured relative viability value corresponds to CCCCCCCCCCCC1=C(O)C(=O)C=C(O)C1=O [Embelin] + COc1cccc2cc(-c3nc([C@H]4CC[C@H](C(=O)O)CC4)n4ncnc(N)c34)[nH]c12 [OSI-027] (partner 0.5 µM) ?
Response: 0.319

* * *

Entries and their relative viability
tested on: NCI-H2228; assay: relative viability (nuclei count vs DMSO), 5 days (fraction); higher = more cells survive; settings: first compound 0.4 µM

INSERT INTO results (molecule, assayed_system, reported_value) VALUES
  ('Clc1ccc(Nc2nnc(Cc3ccncc3)c3ccccc23)cc1 [Vatalanib] + Cc1cc(Nc2cc(N3CCN(C)CC3)nc(Sc3ccc(NC(=O)C4CC4)cc3)n2)n[nH]1 [Tozasertib] (partner 0.1 µM)', 'NCI-H2228', 0.273),
  ('Clc1ccc(Nc2nnc(Cc3ccncc3)c3ccccc23)cc1 [Vatalanib] + N=C(N)NC(=N)NCCc1ccccc1 [Phenformin] (partner 250 µM)', 'NCI-H2228', 0.335),
  ('Clc1ccc(Nc2nnc(Cc3ccncc3)c3ccccc23)cc1 [Vatalanib] + CCNC(=O)c1noc(-c2cc(C(C)C)c(O)cc2O)c1-c1ccc(CN2CCOCC2)cc1 [Luminespib] (partner 0.01 µM)', 'NCI-H2228', 0.163),
  ('C[C@@H]1CN(CC(=O)Nc2ccc3c(c2)Cc2cccc(-c4cc(=O)cc(N5CCOCC5)o4)c2S3)C[C@H](C)O1 + Cc1cc(Nc2cc(N3CCN(C)CC3)nc(Sc3ccc(NC(=O)C4CC4)cc3)n2)n[nH]1 [Tozasertib] (partner 0.1 µM)', 'NCI-H2228', 0.245);

For the next question, use this molecule.
Request: Please report the recorded relative viability for COc1cc(N2CCC(C(N)=O)CC2)ccc1Nc1nc(N)c(Cl)c(Nc2ccccc2S(=O)(=O)C(C)C)n1 [HG-5-88-01] + N=C(N)NC(=N)NCCc1ccccc1 [Phenformin] (partner 250 µM) .
Response: 0.174

* * *

tested on: NCI-H596; assay: relative viability (nuclei count vs DMSO), 5 days (fraction); higher = more cells survive; settings: first compound 0.03162 µM
# relative viability per record follows
Quick one: just the number, no unit, thanks!

INSERT INTO assay_data (molecule, assayed_system, endpoint_name, reported_value) VALUES
  ('CC(C)Oc1cc(Nc2nc(N[C@@H](C)c3ccc(F)cn3)ncc2Cl)n[nH]1 [AZ23] + CC(C)C[C@H](NC(=O)[C@H](Cc1ccccc1)NC(=O)c1cnccn1)B(O)O [Bortezomib] (partner 0.002 µM)', 'NCI-H596', 'relative viability', 1.06),
  ('CC(C)Oc1cc(Nc2nc(N[C@@H](C)c3ccc(F)cn3)ncc2Cl)n[nH]1 [AZ23] + Cc1cc(Nc2cc(N3CCN(C)CC3)nc(Sc3ccc(NC(=O)C4CC4)cc3)n2)n[nH]1 [Tozasertib] (partner 0.1 µM)', 'NCI-H596', 'relative viability', 0.826),
  ('CC(C)Oc1cc(Nc2nc(N[C@@H](C)c3ccc(F)cn3)ncc2Cl)n[nH]1 [AZ23] + O=C(CCCCCCC(=O)Nc1ccccc1)NO [Vorinostat] (partner 1 µM)', 'NCI-H596', 'relative viability', 0.622);

Request: Suppose we examine the molecule CC(C)Oc1cc(Nc2nc(N[C@@H](C)c3ccc(F)cn3)ncc2Cl)n[nH]1 [AZ23] + CS(=O)(=O)CCNCc1ccc(-c2ccc3ncnc(Nc4ccc(OCc5cccc(F)c5)c(Cl)c4)c3c2)o1 [Lapatinib] (partner 2 µM) ; what relative viability value has been reported?
Response: 1.11

Request: Need relative viability of CC(C)Oc1cc(Nc2nc(N[C@@H](C)c3ccc(F)cn3)ncc2Cl)n[nH]1 [AZ23] + C[C@@H](Oc1cc(-c2cnn(C3CCNCC3)c2)cnc1N)c1c(Cl)ccc(F)c1Cl [Crizotinib] (partner 1 µM) , thanks.
Response: 1.05

Request: Quick one: relative viability for CC(C)Oc1cc(Nc2nc(N[C@@H](C)c3ccc(F)cn3)ncc2Cl)n[nH]1 [AZ23] + NC(=O)Nc1cc(-c2cccc(F)c2)sc1C(=O)N[C@H]1CCCNC1 [AZD7762] (partner 0.2 µM) ?
Response: 1.04

Request: Please look up its relative viability: CC(C)Oc1cc(Nc2nc(N[C@@H](C)c3ccc(F)cn3)ncc2Cl)n[nH]1 [AZ23] + CC(=O)Nc1cccc(-n2c(=O)n(C3CC3)c(=O)c3c(Nc4ccc(I)cc4F)n(C)c(=O)c(C)c32)c1 [Trametinib] (partner 0.02 µM)
Response: 0.779

* * *

system: COR-L23; experiment: relative viability (nuclei count vs DMSO), 5 days (fraction); higher = more cells survive; conditions: first compound 0.03162 µM
endpoint-name: relative viability
The answer should be written as a number, with no unit following it.

INSERT INTO assay_data (compound, assayed_system, reported_value) VALUES
  ('CC(C)Oc1cc(Nc2nc(N[C@@H](C)c3ccc(F)cn3)ncc2Cl)n[nH]1 [AZ23] + C[C@@H](Oc1cc(-c2cnn(C3CCNCC3)c2)cnc1N)c1c(Cl)ccc(F)c1Cl [Crizotinib] (partner 1 µM)', 'COR-L23', 0.828);

Request: Return reported relative viability; argument: CC(C)Oc1cc(Nc2nc(N[C@@H](C)c3ccc(F)cn3)ncc2Cl)n[nH]1 [AZ23] + CC(C)C[C@H](NC(=O)[C@H](Cc1ccccc1)NC(=O)c1cnccn1)B(O)O [Bortezomib] (partner 0.002 µM)
Response: 1.27

Request: relative viability lookup needed for CC(C)Oc1cc(Nc2nc(N[C@@H](C)c3ccc(F)cn3)ncc2Cl)n[nH]1 [AZ23] + Cc1nc(Nc2ncc(C(=O)Nc3c(C)cccc3Cl)s2)cc(N2CCN(CCO)CC2)n1 [Dasatinib] (partner 0.075 µM) , thanks.
Response: 0.645

Request: Tell me the measured relative viability of CC(C)Oc1cc(Nc2nc(N[C@@H](C)c3ccc(F)cn3)ncc2Cl)n[nH]1 [AZ23] + CC(=O)Nc1cccc(-n2c(=O)n(C3CC3)c(=O)c3c(Nc4ccc(I)cc4F)n(C)c(=O)c(C)c32)c1 [Trametinib] (partner 0.02 µM) , please.
Response: 0.659

* * *

tested on: HOP-62; experiment: relative viability (nuclei count vs DMSO), 5 days (fraction); higher = more cells survive; conditions: first compound 0.08 µM
Listed compounds paired with reported relative viability
// return just the number, without any unit appended

Below, each entry is followed by its recorded relative viability result.
INSERT INTO measurements (compound, assayed_system, endpoint_name, reported_value) VALUES
  ('CCCCCCCCCCCC1=C(O)C(=O)C=C(O)C1=O [Embelin] + Nc1nc2[nH]cc(CCc3ccc(C(=O)N[C@@H](CCC(=O)O)C(=O)O)cc3)c2c(=O)[nH]1 [Pemetrexed] (partner 0.2 µM)', 'HOP-62', 'relative viability', 0.384),
  ('CCCCCCCCCCCC1=C(O)C(=O)C=C(O)C1=O [Embelin] + CC(=O)Nc1cccc(-n2c(=O)n(C3CC3)c(=O)c3c(Nc4ccc(I)cc4F)n(C)c(=O)c(C)c32)c1 [Trametinib] (partner 0.02 µM)', 'HOP-62', 'relative viability', 0.402),
  ('CCCCCCCCCCCC1=C(O)C(=O)C=C(O)C1=O [Embelin] + CC(=O)c1c(C)c2cnc(Nc3ccc(N4CCNCC4)cn3)nc2n(C2CCCC2)c1=O [Palbociclib] (partner 0.5 µM)', 'HOP-62', 'relative viability', 0.433),
  ('CCCCCCCCCCCC1=C(O)C(=O)C=C(O)C1=O [Embelin] + CS(=O)(=O)N1CCN(Cc2cc3nc(-c4cccc5[nH]ncc45)nc(N4CCOCC4)c3s2)CC1 [Pictilisib] (partner 1 µM)', 'HOP-62', 'relative viability', 0.883),
  ('CCCCCCCCCCCC1=C(O)C(=O)C=C(O)C1=O [Embelin] + CCNC(=O)c1noc(-c2cc(C(C)C)c(O)cc2O)c1-c1ccc(CN2CCOCC2)cc1 [Luminespib] (partner 0.01 µM)', 'HOP-62', 'relative viability', 0.971),
  ('CCCCCCCCCCCC1=C(O)C(=O)C=C(O)C1=O [Embelin] + Cc1nc(NC(=O)N2CCC[C@H]2C(N)=O)sc1-c1ccnc(C(C)(C)C(F)(F)F)c1 [Alpelisib] (partner 2 µM)', 'HOP-62', 'relative viability', 1.04);

Consider the record given below.
Request: // returns reported relative viability for input CCCCCCCCCCCC1=C(O)C(=O)C=C(O)C1=O [Embelin] + Nc1ncn([C@H]2C[C@H](O)[C@@H](CO)O2)c(=O)n1 [Decitabine] (partner 2 µM)
Response: 0.193
